Biological target: human tau(pS422) (Homo sapiens, UniProt P10636, S739X)
Experiment: BIAcore kinetic screening and kinetic rates of humanized VH/VL combinations
Assay type: binding
Details: 25 °C; VH14 or VH20 with VL variants
Procedure: In the following Table characteristics of the different humanized variants of the rabbit light chain variable domain in combination with the humanized heavy chain variable domains VH14 and VH20, respectively, are shown. Binding partner was human tau(pS422). Kinetic screening was performed according to Schraeml et al. (Schraeml, M. and M. Biehl, Methods Mol. Biol. 901 (2012) 171-181) on a BIAcore 4000 instrument, mounted with a BIAcore CM5 sensor. […] The dissociation was monitored for 5 minutes. […]
metric: kd (s⁻¹)

1) VH14 with VL01: anti-human tau(pS422) antibody; VH SEQ ID NO: 50, VL SEQ ID NO: 32 (antibody, V domains shown, humanized sequence) VH: QQLVESGGGLVQPGGSLRLSCAASGFSLSSNAINWVRQAPGKGLEWVGYIAVSGNTYYASWAKGRFTISRDNSKNTLYLQMNSLRAEDTAVYYCGKSNIWGPGTLVTVSS VL: DIQMTQSTSTLSASVGDRVTITCQSSQSVRTNKLAWFQQKPGKAPKRLIYSASTLDFGVPSRFSGSGSGTEFTLTISSLQPDDFATYYCLGYFDCSIADCVAFGGGTKVEIK ... 0.00382
